Assign MICantibiotic + compound to each entry below.
- Tested on: A. baumannii
- procedure_details: Checkerboard assay (antibiotic potentiation)
- Format: cell-based, Acinetobacter baumannii
- study_conditions: A. baumannii ATCC 17978; antibiotic MIC with 8 µg/mL (5 µM) compound 3
Unit µg/mL implied. Number only.

Problem: Recorded MICantibiotic + compound of CO[C@H]1/C=C/O[C@@]2(C)Oc3c(C)c(O)c4c(O)c(c(/C=N/N5CCN(C)CC5)c(O)c4c3C2=O)NC(=O)/C(C)=C\C=C\[C@H](C)[C@H](O)[C@@H](C)[C@@H](O)[C@@H](C)[C@H](OC(C)=O)[C@@H]1C [Rifampicin] , please.
Solution: 2

Problem: Check C[C@H]1COc2c(N3CCN(C)CC3)c(F)cc3c(=O)c(C(=O)O)cn1c23 [Levofloxacin] too.
Solution: 0.125

Problem: For CN(C)c1ccc(O)c2c1C[C@H]1C[C@H]3[C@H](N(C)C)C(O)=C(C(N)=O)C(=O)[C@@]3(O)C(O)=C1C2=O [Minocycline] then?
Solution: 0.125

Problem: And what about the molecule C[C@@H]1CN2c3c(cc4c(N5C(=O)OC[C@@H]5C)noc4c3F)CC3(C(=O)NC(=O)NC3=O)[C@H]2[C@H](C)O1 [Zoliflodacin] ?
Solution: 2

Problem: Moving on to CC(C)(O/N=C(\C(=O)N[C@@H]1C(=O)N2C(C(=O)[O-])=C(C[n+]3ccccc3)CS[C@H]12)c1csc(N)n1)C(=O)O [Ceftazidime]
Solution: 4

Data origin: paper PMC12587545
